# testedSystem: Biotin--[acetyl-CoA-carboxylase] ligase (Mycobacterium tuberculosis (strain ATCC 25618 / H37Rv))
# Sequence (I6YFP0 whole entry): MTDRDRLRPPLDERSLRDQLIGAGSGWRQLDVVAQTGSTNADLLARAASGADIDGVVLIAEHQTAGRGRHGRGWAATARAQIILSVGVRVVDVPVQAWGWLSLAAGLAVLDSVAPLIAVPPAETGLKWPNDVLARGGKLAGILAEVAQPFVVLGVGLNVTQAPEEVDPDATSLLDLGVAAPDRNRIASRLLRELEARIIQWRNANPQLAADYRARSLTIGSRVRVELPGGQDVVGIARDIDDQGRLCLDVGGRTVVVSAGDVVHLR
Give Kd for every item shown.
Number plus unit, in that order.

Suppose we examine the compound Nc1ncnc2c1ncn2[C@H]1C=C[C@@H](CNS(=O)(=O)NC(=O)CCCC[C@@H]2SC[C@@H]3NC(=O)N[C@@H]32)C1 ; what Kd value has been reported?
2140 pM

Looking for the measured Kd of [N-]=[N+]=N[C@@H]1[C@H](O)[C@@H](CNS(=O)(=O)NC(=O)CCCC[C@@H]2SC[C@@H]3NC(=O)N[C@@H]32)O[C@H]1n1cnc2c(N)ncnc21 , can you help?
933 pM

What measured Kd goes with Nc1ncnc2c1ncn2[C@@H]1C[C@H](CNS(=O)(=O)NC(=O)CCCC[C@@H]2SC[C@@H]3NC(=O)N[C@@H]32)[C@@H](O)[C@H]1O ?
753 pM
